biological target: Neurotensin receptor type 1 (Homo sapiens); note: assay procedure not described here
Sequence (P30989 whole entry): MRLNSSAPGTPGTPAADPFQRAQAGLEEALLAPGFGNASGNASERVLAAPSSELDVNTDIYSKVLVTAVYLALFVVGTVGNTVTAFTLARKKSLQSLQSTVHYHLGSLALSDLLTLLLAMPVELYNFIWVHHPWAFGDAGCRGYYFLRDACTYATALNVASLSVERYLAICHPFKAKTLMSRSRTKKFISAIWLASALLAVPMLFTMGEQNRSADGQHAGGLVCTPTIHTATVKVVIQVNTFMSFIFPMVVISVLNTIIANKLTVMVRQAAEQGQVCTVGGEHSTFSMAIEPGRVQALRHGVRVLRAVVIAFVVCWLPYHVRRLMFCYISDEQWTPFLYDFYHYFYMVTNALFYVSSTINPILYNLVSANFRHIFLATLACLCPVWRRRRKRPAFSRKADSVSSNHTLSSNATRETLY
endpoint: AC50

Before answering, review these 4 worked examples.
compound | target_entity | endpoint | experimental_value
CC(C)C[C@H](CN)CC(=O)O [PREGABALIN] | Neurotensin receptor type 1 (Homo sapiens) | AC50 | > 30 µM
CCCN(CCC)CCc1cccc2c1CC(=O)N2 [ROPINIROLE] | Neurotensin receptor type 1 (Homo sapiens) | AC50 | > 30 µM
CCn1cc(C(=O)O)c(=O)c2cc(F)c(N3CCNCC3)nc21 [ENOXACIN] | Neurotensin receptor type 1 (Homo sapiens) | AC50 | > 30 µM
O=C1Nc2ccc(Cl)cc2C(c2ccccc2)=NC1O (stereo not given) [OXAZEPAM] | Neurotensin receptor type 1 (Homo sapiens) | AC50 | > 30 µM

Exam item: Fetch value of AC50 on Neurotensin receptor type 1 (Homo sapiens) for CCCCNc1ccc(C(=O)OCCN(C)C)cc1 [TETRACAINE] .
Marked response: 9.9 µM

====

Molecular target: Muscarinic acetylcholine receptor M2 (Homo sapiens, UniProt P08172); note: assay procedure not described here
Sequence (P08172 whole entry): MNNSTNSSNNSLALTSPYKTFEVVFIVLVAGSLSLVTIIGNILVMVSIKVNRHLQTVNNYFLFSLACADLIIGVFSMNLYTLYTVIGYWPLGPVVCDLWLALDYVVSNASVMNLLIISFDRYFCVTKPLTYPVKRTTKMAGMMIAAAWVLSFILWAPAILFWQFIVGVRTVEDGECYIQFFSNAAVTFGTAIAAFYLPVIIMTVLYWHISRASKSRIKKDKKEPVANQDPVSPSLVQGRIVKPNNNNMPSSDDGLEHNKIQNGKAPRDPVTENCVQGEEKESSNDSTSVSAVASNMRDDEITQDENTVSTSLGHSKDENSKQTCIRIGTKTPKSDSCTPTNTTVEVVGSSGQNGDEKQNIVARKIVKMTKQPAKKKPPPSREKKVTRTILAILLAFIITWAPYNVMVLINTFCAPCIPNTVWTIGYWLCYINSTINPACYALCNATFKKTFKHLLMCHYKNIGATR
Type: functional, cell-based
endpoint: AC50

compound | AC50
CC(=O)c1ccc2c(c1)N(CCCN1CCC(CCO)CC1)c1ccccc1S2 | 24 µM
CO[C@@]1(NC(=O)CSCC#N)C(=O)N2C(C(=O)O)=C(CSc3nnnn3C)CS[C@@H]21 | > 30 µM
CCCC[C@H](C)C[C@H](O)/C=C/[C@H]1[C@H](O)CC(=O)[C@@H]1CCCC/C=C/C(=O)O | > 30 µM
O=c1oc2ccccc2c(O)c1Cc1c(O)c2ccccc2oc1=O | > 10 µM

Now for a further compound.
Exam item: Note down AC50 recorded for O=C1NC(=O)C(c2ccccc2)(c2ccccc2)N1
Marked response: > 30 µM

====

molecular target: Gamma-aminobutyric acid receptor subunit alpha-1 (Rattus norvegicus); format: functional; note: assay procedure not described here
Sequence (P62813 whole entry): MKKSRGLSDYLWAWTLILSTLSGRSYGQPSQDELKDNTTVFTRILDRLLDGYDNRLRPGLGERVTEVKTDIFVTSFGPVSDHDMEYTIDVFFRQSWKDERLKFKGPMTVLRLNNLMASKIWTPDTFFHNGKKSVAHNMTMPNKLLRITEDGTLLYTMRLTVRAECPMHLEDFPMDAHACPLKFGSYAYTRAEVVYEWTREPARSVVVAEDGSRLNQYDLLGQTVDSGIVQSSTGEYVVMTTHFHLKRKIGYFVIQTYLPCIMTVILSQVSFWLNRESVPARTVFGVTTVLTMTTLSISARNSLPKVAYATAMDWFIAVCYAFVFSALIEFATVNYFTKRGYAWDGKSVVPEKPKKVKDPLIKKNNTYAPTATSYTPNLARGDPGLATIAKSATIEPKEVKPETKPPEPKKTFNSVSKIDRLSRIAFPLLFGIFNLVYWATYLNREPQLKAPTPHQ
endpoint: AC50

Before answering, review these 5 worked examples.
compound | AC50
O=c1oc2ccccc2c(O)c1Cc1c(O)c2ccccc2oc1=O | > 10 µM
CC(=O)c1ccc2c(c1)N(CCCN1CCC(CCO)CC1)c1ccccc1S2 | > 30 µM
COc1ccnc(C[S+]([O-])c2nc3ccc(OC(F)F)cc3[nH]2)c1OC (stereo not drawn) | > 10 µM
CN1CCN(CCCN2c3ccccc3Sc3ccc(S(=O)(=O)N(C)C)cc32)CC1 | > 30 µM
Oc1c(I)cc(Cl)c2cccnc12 | > 30 µM

Exam item: Note down AC50 recorded for COc1ccc(C(CN(C)C)C2(O)CCCCC2)cc1 (stereo not drawn)
Marked response: > 10 µM

Exam item: Note down AC50 recorded for Cc1cccc(N(C)C(=S)Oc2ccc3ccccc3c2)c1 [TOLNAFTATE]
Marked response: > 10 µM

Exam item: Note down AC50 recorded for O=C(Nc1nc(-c2cc(Cl)cs2)c(N2CCN(C3CCCCC3)CC2)s1)c1cnc(N2CCC(C(=O)O)CC2)c(Cl)c1
Marked response: > 10 µM

Exam item: Note down AC50 recorded for Nc1ccn([C@@H]2O[C@H](CO)[C@@H](O)C2(F)F)c(=O)n1
Marked response: > 10 µM

Exam item: Note down AC50 recorded for C[C@H]1C[C@H]2[C@@H]3CCC4=CC(=O)C=C[C@]4(C)[C@@]3(Cl)[C@@H](O)C[C@]2(C)[C@@]1(O)C(=O)CO
Marked response: > 10 µM

Exam item: Note down AC50 recorded for Clc1cccc(Cl)c1N=C1NCCN1
Marked response: > 10 µM

Exam item: Note down AC50 recorded for CC1(C)O[C@@H]2C[C@H]3[C@@H]4C[C@H](F)C5=CC(=O)C=C[C@]5(C)[C@H]4[C@@H](O)C[C@]3(C)[C@]2(C(=O)CO)O1 [FLUNISOLIDE]
Marked response: > 30 µM

Exam item: Note down AC50 recorded for CNCCCC1c2ccccc2C=Cc2ccccc21
Marked response: > 10 µM

====

biological target: 3',5'-cyclic-AMP phosphodiesterase 4A (Homo sapiens, UniProt P27815); type: functional; note: assay procedure not described here
Sequence (P27815 whole entry): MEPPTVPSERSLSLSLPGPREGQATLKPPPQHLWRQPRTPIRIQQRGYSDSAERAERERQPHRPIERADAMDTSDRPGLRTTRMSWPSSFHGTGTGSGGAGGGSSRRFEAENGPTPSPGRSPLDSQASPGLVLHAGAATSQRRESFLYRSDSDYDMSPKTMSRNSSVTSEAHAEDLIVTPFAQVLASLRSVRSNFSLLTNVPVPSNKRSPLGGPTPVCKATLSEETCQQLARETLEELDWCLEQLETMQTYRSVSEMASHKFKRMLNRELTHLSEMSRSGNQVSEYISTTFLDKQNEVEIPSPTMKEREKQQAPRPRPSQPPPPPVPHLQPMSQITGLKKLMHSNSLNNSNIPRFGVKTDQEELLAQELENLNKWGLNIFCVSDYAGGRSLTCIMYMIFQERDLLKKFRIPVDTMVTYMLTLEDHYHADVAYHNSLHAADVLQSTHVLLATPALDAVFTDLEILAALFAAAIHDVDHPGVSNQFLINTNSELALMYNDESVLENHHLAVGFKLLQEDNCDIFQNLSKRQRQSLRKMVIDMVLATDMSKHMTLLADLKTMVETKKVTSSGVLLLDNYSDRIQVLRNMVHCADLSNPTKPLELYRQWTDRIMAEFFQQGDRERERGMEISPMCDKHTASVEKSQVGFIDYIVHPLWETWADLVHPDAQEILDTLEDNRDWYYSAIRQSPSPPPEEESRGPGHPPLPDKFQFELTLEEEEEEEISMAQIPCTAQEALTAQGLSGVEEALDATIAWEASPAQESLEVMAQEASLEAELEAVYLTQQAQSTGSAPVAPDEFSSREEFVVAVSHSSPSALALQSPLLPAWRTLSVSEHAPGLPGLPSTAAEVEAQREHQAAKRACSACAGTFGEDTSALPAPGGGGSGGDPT
AC50 for assorted compounds

Exam item: Fetch value of AC50 on 3',5'-cyclic-AMP phosphodiesterase 4A (Homo sapiens, UniProt P27815) for N[C@@H](CSSC[C@H](N)C(=O)O)C(=O)O .
Marked response: > 30 µM

Exam item: Fetch value of AC50 on 3',5'-cyclic-AMP phosphodiesterase 4A (Homo sapiens, UniProt P27815) for C[C@]12CC[C@@H]3c4ccc(O)cc4CC[C@H]3[C@@H]1CC[C@@H]2OC(=O)CCC1CCCC1 [ESTRADIOL CYPIONATE] .
Marked response: 17.6 µM

Exam item: Fetch value of AC50 on 3',5'-cyclic-AMP phosphodiesterase 4A (Homo sapiens, UniProt P27815) for CN(C)CCC(c1ccccc1)c1ccccn1 (configuration not stated) .
Marked response: > 30 µM

====

Parameter 'readout' = AC50; parameter 'system' = Sodium-dependent dopamine transporter (Homo sapiens, UniProt Q01959). Note: assay procedure not described here.
Sequence (Q01959 whole entry): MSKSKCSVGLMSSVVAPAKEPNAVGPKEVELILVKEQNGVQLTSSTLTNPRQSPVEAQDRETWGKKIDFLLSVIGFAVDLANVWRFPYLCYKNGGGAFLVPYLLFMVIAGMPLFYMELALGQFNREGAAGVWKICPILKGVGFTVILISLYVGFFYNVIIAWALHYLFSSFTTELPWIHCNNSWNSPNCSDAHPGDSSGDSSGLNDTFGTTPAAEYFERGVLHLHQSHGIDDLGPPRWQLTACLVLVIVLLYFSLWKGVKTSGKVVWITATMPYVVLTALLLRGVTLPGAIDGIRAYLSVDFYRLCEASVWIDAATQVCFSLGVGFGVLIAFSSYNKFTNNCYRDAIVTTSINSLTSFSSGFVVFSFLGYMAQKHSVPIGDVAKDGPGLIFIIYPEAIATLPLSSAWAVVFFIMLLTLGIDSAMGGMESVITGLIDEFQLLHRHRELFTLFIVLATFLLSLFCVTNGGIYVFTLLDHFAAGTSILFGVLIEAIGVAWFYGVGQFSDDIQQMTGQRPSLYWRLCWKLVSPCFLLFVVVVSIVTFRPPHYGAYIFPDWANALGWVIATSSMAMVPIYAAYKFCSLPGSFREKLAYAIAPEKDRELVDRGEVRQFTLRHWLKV

Before answering, review these 4 worked examples.
molecule | AC50
C[C@@H]1C[C@H]2[C@@H]3CCC4=CC(=O)C=C[C@]4(C)C3=CC[C@]2(C)[C@H]1C(=O)CN1CCN(c2cc(N3CCCC3)nc(N3CCCC3)n2)CC1 [TIRILAZAD] | > 30 µM
NC(=O)NS(=O)(=O)c1ccc(N)cc1 [SULFACARBAMIDE] | > 30 µM
C#Cc1cccc(Nc2ncnc3cc(OCCOC)c(OCCOC)cc23)c1 [ERLOTINIB] | > 30 µM
C[C@@H](O)[C@H]1C(=O)N2C(C(=O)O)=C([C@H]3CCCO3)S[C@H]12 [FAROPENEM] | > 30 µM

Exam item: Note down AC50 recorded for Cc1cc(CCN2CCN(c3cccc(Cl)c3)CC2)n[nH]1 [MEPIPRAZOLE]
Marked response: 8.04 µM

Exam item: Note down AC50 recorded for CCn1cc(C(=O)O)c(=O)c2cc(F)c(N3CCNCC3)nc21 [ENOXACIN]
Marked response: > 30 µM

Exam item: Note down AC50 recorded for CCOC(=O)[C@H](CCc1ccccc1)N[C@@H](C)C(=O)N1Cc2cc(OC)c(OC)cc2C[C@H]1C(=O)O [MOEXIPRIL]
Marked response: > 30 µM

Exam item: Note down AC50 recorded for CCCCNc1ccc(C(=O)OCCN(C)C)cc1 [TETRACAINE]
Marked response: 21.9 µM

Exam item: Note down AC50 recorded for OC(CCCN1CCCCC1)(c1ccccc1)c1ccccc1 [DIPHENIDOL]
Marked response: > 30 µM

====

Parameter 'readout' = AC50; parameter 'system' = Histamine H3 receptor (Homo sapiens). Note: assay procedure not described here.
Sequence (Q9Y5N1 whole entry): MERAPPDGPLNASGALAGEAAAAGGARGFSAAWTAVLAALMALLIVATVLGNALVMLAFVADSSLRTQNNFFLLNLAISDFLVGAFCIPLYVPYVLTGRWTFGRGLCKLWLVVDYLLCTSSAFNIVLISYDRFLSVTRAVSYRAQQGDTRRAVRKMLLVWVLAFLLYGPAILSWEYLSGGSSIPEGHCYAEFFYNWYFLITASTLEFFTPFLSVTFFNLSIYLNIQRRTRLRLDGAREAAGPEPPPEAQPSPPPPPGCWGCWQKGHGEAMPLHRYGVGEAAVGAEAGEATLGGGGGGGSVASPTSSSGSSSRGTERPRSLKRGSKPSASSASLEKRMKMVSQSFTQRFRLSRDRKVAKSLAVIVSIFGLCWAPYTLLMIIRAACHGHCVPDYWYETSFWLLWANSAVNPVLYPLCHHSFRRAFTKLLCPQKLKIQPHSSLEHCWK

compound | AC50
NS(=O)(=O)c1cc2c(cc1C(F)(F)F)NC(Cc1ccccc1)NS2(=O)=O (stereo not drawn) [BENDROFLUMETHIAZIDE] | > 10 µM
CCCN(CC)C(CC)C(=O)Nc1c(C)cccc1C (stereo not drawn) | > 30 µM
CCCCCCOC(=O)CCC(=O)CN [HEXAMINOLEVULINATE] | > 30 µM
CN(C)c1cc(NC(=O)CNC(C)(C)C)c(O)c2c1C[C@H]1C[C@H]3[C@H](N(C)C)C(O)=C(C(N)=O)C(=O)[C@@]3(O)C(O)=C1C2=O | > 30 µM
C=CC1=C(C(=O)O)N2C(=O)[C@@H](NC(=O)/C(=N\OCC(=O)O)c3csc(N)n3)[C@H]2SC1 | > 30 µM

Exam item: Fetch value of AC50 on Histamine H3 receptor (Homo sapiens) for CN(C)C(=O)Oc1cc(OC(=O)N(C)C)cc(C(O)CNC(C)(C)C)c1 (stereo not drawn) .
Marked response: > 30 µM

Exam item: Fetch value of AC50 on Histamine H3 receptor (Homo sapiens) for O=C1CN=C(c2ccccc2)c2cc(Cl)ccc2N1 .
Marked response: > 10 µM

Exam item: Fetch value of AC50 on Histamine H3 receptor (Homo sapiens) for CCc1oc2ccccc2c1C(=O)c1cc(Br)c(O)c(Br)c1 .
Marked response: > 30 µM

Exam item: Fetch value of AC50 on Histamine H3 receptor (Homo sapiens) for O=C(O)c1ccccc1OP(=O)(O)O .
Marked response: > 30 µM

Exam item: Fetch value of AC50 on Histamine H3 receptor (Homo sapiens) for CC(C)c1cc2c(cc1S(=O)(=O)O)[C@@]1(C)CCC[C@@](C)(C(=O)O)[C@@H]1CC2 .
Marked response: > 30 µM

Hey, just so you know, these numbers are from ChEMBL document CHEMBL5291721.
